The measurements presented in this section are drawn from patent US20240368139A1.

target: human EHMT1 982-1266 (Homo sapiens, UniProt Q9H9B1); assay: EHMT1 enzyme assay on histone peptide substrate (3H-SAM SPA); conditions: EHMT1 IC50, recombinant human EHMT1 982-1266, histone peptide substrate
Sequence (Q9H9B1 982-1266): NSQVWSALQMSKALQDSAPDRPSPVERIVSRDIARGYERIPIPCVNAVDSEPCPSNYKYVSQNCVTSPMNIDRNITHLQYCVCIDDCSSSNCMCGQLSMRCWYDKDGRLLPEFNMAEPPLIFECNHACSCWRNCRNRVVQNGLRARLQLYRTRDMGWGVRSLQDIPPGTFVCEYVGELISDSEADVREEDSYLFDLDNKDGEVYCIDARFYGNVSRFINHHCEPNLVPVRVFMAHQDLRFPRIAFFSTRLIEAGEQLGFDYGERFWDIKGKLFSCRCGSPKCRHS
MEASURE NAME: IC50

Here is how some compounds turned out for IC50.
CNc1nc(Nc2cc3c(c(C4=CCN(C)CCC4)c2F)OCO3)nc(C)c1F : 100 to 500 nM
CNc1cc(C)nc(Nc2cc3c(c(C4=CCNCCC4)c2Cl)OCO3)n1 : < 100 nM
CNc1cc(C)nc(Nc2cc3c(c(C4=CCNC(C)CC4)c2Cl)OCO3)n1 (single isomer, unassigned) [Compound 356] : < 100 nM
[2H]C([2H])([2H])Nc1cc(C)nc(Nc2cc3c(c(C4=CCN(C)CCC4)c2)OCCC3)n1 : < 100 nM
[2H]C([2H])([2H])Nc1nc(Nc2cc3c(c(C4=CCNCCC4)c2F)OCC3)nc(C)c1F : < 100 nM

Field: IC50. Fill in for each record below.
1. CNc1cc(C)nc(Nc2cc3c(c(OCCCN4CCCC4)c2)OCCC3)n1
2. COCCNc1cc(C)nc(Nc2cc3c(c(C4=CCN(C)CCC4)c2F)OCC3)n1
3. [2H]C([2H])([2H])CNc1cc(C)nc(Nc2cc3c(c(C4=CCN(C)CCC4)c2)OCO3)n1

Result:
["100 to 500 nM", "< 100 nM", "< 100 nM"]

====

biological target: hERG potassium channels (Homo sapiens, UniProt Q12809); test: In vitro hERG assay (SyncroPatch whole-cell recording); details: hERG IC50, SyncroPatch, room temperature
Sequence (Q12809 whole entry): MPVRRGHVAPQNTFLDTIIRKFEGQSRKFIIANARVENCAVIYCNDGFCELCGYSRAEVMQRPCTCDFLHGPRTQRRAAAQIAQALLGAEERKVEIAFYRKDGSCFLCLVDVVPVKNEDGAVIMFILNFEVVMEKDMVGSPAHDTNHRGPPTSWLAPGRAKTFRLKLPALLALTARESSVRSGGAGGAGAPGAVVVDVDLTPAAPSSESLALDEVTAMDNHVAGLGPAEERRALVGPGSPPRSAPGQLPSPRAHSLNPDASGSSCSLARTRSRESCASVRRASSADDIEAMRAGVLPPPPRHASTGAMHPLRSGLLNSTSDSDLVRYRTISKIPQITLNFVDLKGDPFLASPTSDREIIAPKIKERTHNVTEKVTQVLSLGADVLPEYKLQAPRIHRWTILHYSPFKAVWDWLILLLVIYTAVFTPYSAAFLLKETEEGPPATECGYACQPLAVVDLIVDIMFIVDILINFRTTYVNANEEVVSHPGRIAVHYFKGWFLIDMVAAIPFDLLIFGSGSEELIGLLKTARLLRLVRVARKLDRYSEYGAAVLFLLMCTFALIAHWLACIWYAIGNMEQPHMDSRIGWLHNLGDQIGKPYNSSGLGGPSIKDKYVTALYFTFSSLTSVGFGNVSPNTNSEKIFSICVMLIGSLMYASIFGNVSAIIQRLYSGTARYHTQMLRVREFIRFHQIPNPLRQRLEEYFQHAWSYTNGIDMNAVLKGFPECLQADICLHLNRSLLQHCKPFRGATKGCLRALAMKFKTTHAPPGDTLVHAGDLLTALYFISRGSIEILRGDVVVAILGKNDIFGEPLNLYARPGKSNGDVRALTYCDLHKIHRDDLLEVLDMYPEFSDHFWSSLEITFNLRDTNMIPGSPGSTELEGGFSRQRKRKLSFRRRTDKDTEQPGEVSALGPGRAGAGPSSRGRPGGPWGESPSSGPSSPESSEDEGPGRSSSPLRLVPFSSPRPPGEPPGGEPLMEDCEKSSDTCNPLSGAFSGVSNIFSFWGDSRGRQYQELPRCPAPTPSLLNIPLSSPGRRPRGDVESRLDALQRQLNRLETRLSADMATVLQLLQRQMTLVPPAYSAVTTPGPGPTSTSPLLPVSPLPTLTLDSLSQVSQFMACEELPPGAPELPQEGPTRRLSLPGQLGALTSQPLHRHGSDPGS
So I've got a bunch of molecules here, and I need their IC50 values.

Cc1cc(NC2CCC2)nc(Nc2cc3c(c(C4=CCNCCC4)c2)OCC3)n1 [Compound 325] : 2 to 5 µM
CNc1cc(C)nc(Nc2cc3c(c(C4=C[C@H]5CNC[C@H]5C4)c2)OCCO3)n1 (racemic) [Compound 134] : > 10 µM
CNc1cc(C)nc(Nc2cc3c(c(C4=CCNCCC4)c2Cl)OCCC3)n1 [Compound 175] : 5 to 10 µM
CNc1cc(C)nc(Nc2cc3c(c(C4CCCNCC4)c2)OCCC3)n1 (stereo not drawn) [Compound 341] : > 10 µM
CNc1cc(C)nc(Nc2cc3c(c(C4=CCNCCC4)c2F)OCCC3)n1 [Compound 193] : 5 to 10 µM
CNc1cc(C)nc(Nc2cc3c(c(C4=CCNC(C)CC4)c2Cl)OCC3)n1 (single isomer, unassigned) [Compound 374] : > 10 µM

Items follow; give IC50 for each.
1. CNc1cc(C(C)C)nc(Nc2cc3c(c(C4=CCN(C)CCC4)c2)OCC3)n1 [Compound 323]
2. CNc1cc(C)nc(Nc2cc3c(c(C4=CCNCCC4)c2)OC(F)(F)O3)n1 [Compound 142]
3. CNc1cc(C)nc(Nc2cc3c(c(C4=CCNCCC4)c2C)OCC3)n1 [Compound 188]
4. CNc1cc(C)nc(Nc2cc3c(c(C4=CCNCCC4)c2F)OCC32CC2)n1 [Compound 172]
5. CNc1ccnc(Nc2cc3c(c(C4=CCNCCC4)c2)OCC3)n1 [Compound 330]
6. CNc1cc(C)nc(Nc2cc3c(c(C4=CCNCCC4)c2F)OCCO3)n1 [Compound 191]
7. CNc1ccnc(Nc2cc3c(c(C4=CCNCCC4)c2)OCO3)n1 [Compound 336]
8. CNc1cc(C)nc(Nc2cc3c(c(C4=CCNCCC4)c2F)OCC3C)n1 (single isomer, unassigned) [Compound 169]

Result:
["2 to 5 µM", "< 2 µM", "> 10 µM", "2 to 5 µM", "> 10 µM", "2 to 5 µM", "5 to 10 µM", "5 to 10 µM"]

Dear colleague, could you send me IC50 for each of the items below? Thanks.
1. CNc1cc(C)nc(Nc2cc3c(c(C4=CCN(C)CCC4)c2F)OCCC3)n1 [Compound 190]
2. CNc1cc(C)nc(Nc2cc3c(c(C4=CCN(C)CCC4)c2)OCCO3)n1 [Compound 131]
3. CNc1cc(C)nc(Nc2c(F)c3c(c(C4=CCNCCC4)c2F)OCC3)n1 [Compound 187]
4. CNc1cc(C)nc(Nc2cc3c(c(C4=CCNCCC4)c2Cl)OCCO3)n1 [Compound 166]
5. CNc1cc(C)nc(Nc2cc3c(c(C4=CCNCCC4)c2)OCCO3)c1 [Compound 144]

Result:
["5 to 10 µM", "5 to 10 µM", "> 10 µM", "< 2 µM", "> 10 µM"]

Could I get IC50 for every one of these entries?
1. CNc1cc(C)nc(Nc2cc3c(c(C4C[C@H]5CNC[C@H]5C4)c2)OCCO3)n1 (stereo partly drawn) [Compound 334]
2. CNc1cc(C)nc(Nc2cc3c(c(C4=CCNCCC4)c2F)OCC3)n1 [Compound 291]
3. CNc1cc(C)nc(Nc2cc3c(c(C4=CCN(C)CCC4)c2)OCC3)n1 [Compound 111]
4. COCCNc1cc(C)nc(Nc2cc3c(c(C4=CCNCCC4)c2F)OCC3)n1 [Compound 289]
5. CNc1ccnc(Nc2cc3c(c(C4=CCN(C)CCC4)c2)OCO3)n1 [Compound 335]
6. COCCNc1cc(C)nc(Nc2cc3c(c(C4=CCN(C)CCC4)c2F)OCC3)n1 [Compound 290]
7. CNc1cc(C)nc(Nc2ccc(OC)c(C3=CCN(C)CCC3)c2)n1 [Reference Compound A, reference compound]

Result:
1. > 10 µM
2. > 10 µM
3. > 10 µM
4. > 10 µM
5. 5 to 10 µM
6. > 10 µM
7. 5 to 10 µM

So for CNc1cc(C)nc(Nc2cc3c(c(C4=CCNCCC4)c2Cl)OCC3)n1 [Compound 189] , the logged IC50 turned out to be > 10 µM

====

Molecular target: human EHMT2 913-1193 (Homo sapiens, UniProt Q96KQ7)
Sequence (Q96KQ7 913-1193): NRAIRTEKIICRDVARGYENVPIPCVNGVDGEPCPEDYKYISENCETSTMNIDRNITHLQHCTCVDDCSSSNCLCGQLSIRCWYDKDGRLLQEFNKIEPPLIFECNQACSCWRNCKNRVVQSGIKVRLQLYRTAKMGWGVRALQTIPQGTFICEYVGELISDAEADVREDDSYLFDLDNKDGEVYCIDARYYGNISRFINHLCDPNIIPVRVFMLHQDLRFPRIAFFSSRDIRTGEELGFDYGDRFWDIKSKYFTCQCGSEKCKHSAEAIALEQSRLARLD
Test: EHMT2 enzyme assay on histone peptide substrate (3H-SAM SPA)
Settings: EHMT2 IC50, recombinant human EHMT2 913-1193, histone peptide substrate
pIC50: −log10 of the molar value.
Could you please report measured pIC50 for the items listed next?

Solved cases (10 shown):
[2H]Cc1cc(NCC([2H])([2H])[2H])nc(Nc2cc3c(c(C4=CCNCCC4)c2F)OCC3)n1 : > 7.00
CNc1cc(C)nc(Nc2cc3c(c(C4=CCNCC(OC)C4)c2F)OCC3)n1 (single isomer, unassigned) [Compound 366] : 5.70 to 6.30
CNc1cc(C)nc(Nc2cc3c(c(C4=CCNC(C)CC4)c2C)OCCO3)n1 (single isomer, unassigned) : 6.30 to 7.00
CNc1cc(C)nc(Nc2cc3c(c(C4=CCN(C)CC(O)C4)c2F)OCC3)n1 (stereo not drawn) [Compound 180] : > 7.00
CNc1cc(C)nc(Nc2cc3c(c([C@H]4C[C@H]5CNC[C@H]5C4)c2)OCO3)n1 : 5.70 to 6.30
CNc1cc(C)nc(Nc2cc3c(c(C4C[C@@H]5CN(C)C[C@@H]5C4)c2)OCCO3)n1 (stereo partly drawn) : 5.70 to 6.30
CNc1cc(C)nc(Nc2cc3c(c(C4=CCNCCC4)c2F)OCCC3)n1 : > 7.00
[2H]C([2H])([2H])Nc1cc(C)nc(Nc2cc3c(c(C4=CCN(C)CCC4)c2)OCC3)n1 : > 7.00
CNc1cc(C)nc(Nc2cc3c(c(C4=CCNC(C)CC4)c2Cl)OCCO3)n1 (single isomer, unassigned) [Compound 161-a] : < 5.70
CNc1nc(Nc2cc3c(c(C4=CCNCCC4)c2)OCO3)nc(C)c1F : 5.70 to 6.30

# batch: return pIC50 for each of the 5 compounds below
1. CNc1cc(C)nc(Nc2cc3c(c(C4=CCN(CC(F)F)CCC4)c2F)OCC3)n1
2. CNc1cc(C2CCCCC2)nc(Nc2cc3c(c(OCCCN4CCCC4)c2)OCC3)n1
3. COCCNc1cc(C)nc(Nc2cc3c(c(C4=CCNCCC4)c2)OCC3)n1
4. CNc1cc(C)nc(Nc2cc3c(c(C4=CCNC(C(F)F)CC4)c2F)OCC3)n1 (single isomer, unassigned) [Compound 354]
5. [2H]C([2H])([2H])Nc1cc(C)nc(Nc2cc3c(c(C4=CCN(C)CCC4)c2)OCCO3)n1

Result:
1. 5.70 to 6.30
2. < 5.70
3. > 7.00
4. 6.30 to 7.00
5. 5.70 to 6.30

Items follow; give pIC50 for each.
1. CNc1cc(C)nc(Nc2cc3c(c(C4=CCNC(C)CC4)c2F)OCC3)n1 (single isomer, unassigned) [Compound 184]
2. CNc1nc(Nc2cc3c(c(C4=CCN(C)CCC4)c2)OCC3)nc(C)c1C
3. CNc1cc(C)nc(Nc2cc3c(c(N4C[C@H]5CNC[C@H]5C4)c2)OCCC3)n1
4. CNc1cc(C)nc(Nc2cc3c(c(C4=CCNC(C)CC4)c2Cl)OCCO3)n1 (single isomer, unassigned) [Compound 161]
5. [2H]Cc1nc(Nc2cc3c(c(C4=CCNCCC4)c2F)OCC3)nc(NC)c1F
6. CNc1cc(C)nc(Nc2cc3c(c(C4=CCNCCC4)c2OC)OCC3)n1

Result:
5.70 to 6.30
6.30 to 7.00
5.70 to 6.30
> 7.00
> 7.00
5.70 to 6.30
